The following compounds are shown together with reported IC50 values.
# protocol description: in vitro
# measurement parameters: rat, Cell Toxicity IC50 (uM) [cFib assay], Table 3
Structures can show the parent of a compound that is named as a salt.

See these solved cases before continuing.
compound	IC50
Cc1cccc(C)c1N=C1NCCCS1 [Xylazine hydrochloride, reference compound]	> 20 µM
C[C@H]1C[C@H]2[C@@H]3CCC4=CC(=O)C=C[C@]4(C)[C@@]3(F)[C@@H](O)C[C@]2(C)[C@@]1(O)C(=O)CO [Betamethasone, reference compound]	> 20 µM
Cc1cccc(N(C)C(=S)Oc2ccc3ccccc3c2)c1 [Tolnaftate, reference compound]	> 20 µM
C[C@H]1[C@H](OC(=O)CCC(=O)O)O[C@@H]2O[C@@]3(C)CC[C@H]4[C@H](C)CC[C@@H]1[C@@]24OO3 [Artesunate, reference compound]	> 20 µM
C[C@]12C=CC(=O)C=C1CC[C@@H]1[C@@H]2C(=O)C[C@@]2(C)[C@H]1CC[C@]2(O)C(=O)CO [Prednisone, reference compound]	> 20 µM

// IC50 lookup, compound = COc1ccc(-n2nc(CCC(=O)N(C)O)cc2-c2ccc(Cl)cc2)cc1 [Tepoxalin, reference compound] , result: > 20 µM

// IC50 lookup, compound = CC[C@]1(O)C[C@@H]2CN(CCc3c([nH]c4ccccc34)[C@@](C(=O)OC)(c3cc4c(cc3OC)N(C)[C@H]3[C@@](O)(C(=O)OC)[C@H](OC(C)=O)[C@]5(CC)C=CCN6CC[C@]43[C@@H]65)C2)C1 [Vinblastine sulfate, reference compound] , result: > 20 µM

// IC50 lookup, compound = CC[C@@]1(O)C(=O)OCc2c1cc1n(c2=O)Cc2cc3c([N+](=O)[O-])cccc3nc2-1 [Rubitecan, reference compound] , result: > 20 µM

// IC50 lookup, compound = CC(=O)O[C@]1(C(C)=O)CC[C@H]2[C@@H]3C[C@H](C)C4=CC(=O)CC[C@]4(C)[C@H]3CC[C@@]21C [Medroxyprogesterone acetate, reference compound] , result: > 20 µM
